# normalized growth listing for each entry below
assay: chemical genetic growth profiling, strain panel (AID 1159580);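 note: tested at 20 µM; growth read once vehicle control cultures reached saturation at 30 °C; 1 = growth at the plate median or of vehicle wells; lower values mean less growth of the strain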; settings: S. cerevisiae deletion strains, growth OD, locus YLR027C, strain aat2, active compounds read low
The campaign covered roughly 5,500 compounds. About 2,000 (36%) were called active. About 18% were inconclusive and are not listed. The list shows a part of the results.
I'd appreciate a reply containing only the number, no unit.

Example entries begin here.
O=C(O)c1cc(=O)c2ccccc2o1: 0.979
NCCc1ccc(O)c(O)c1: 1.01
CC(=O)O.CC(=O)O.[Cd]: 0.664

Looking up CC(=O)Nc1ccc(O)cc1 , I see its normalized growth listed as 1.01

###

// values below are reported normalized growth
assay: chemical genetic growth profiling, strain panel (AID 1159580);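 note: tested at 20 µM; growth read once vehicle control cultures reached saturation at 30 °C; 1 = growth at the plate median or of vehicle wells; lower values mean less growth of the strain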; conditions: S. cerevisiae deletion strains, growth OD, locus YKL009W, strain mrt4, active compounds read low
In all, about 5,500 compounds went through this assay and about 2,000 (36%) were called active. Not shown: some 18% with an inconclusive outcome. The list shows a part of the results.
I'd appreciate a reply containing only the number, no unit.

ClC(Cl)=C(c1ccc(Cl)cc1)c1ccc(Cl)cc1: 0.995
COc1ccc(-c2cc(=O)c3c(OC(C)=O)cc(OC(C)=O)cc3o2)cc1: 0.994
CCCN1C[C@H](CSC)C[C@@H]2c3cccc4[nH]cc(c34)C[C@H]21: 1.01
COc1cc([C@@H]2c3cc4c(cc3[C@H](OC(C)=O)[C@H]3COC(=O)[C@H]23)OCO4)cc(OC)c1OC: 0.972
Clc1ccc(Cl)cc1: 1

normalized growth recorded for this molecule, COc1c(O)cc2c(-c3ccccc3)cc(=O)oc2c1OC , is 0.996

Query Cn1c(=O)c2[nH]c(C3CCCC3)nc2n(C)c1=O yields normalized growth of 1

Please fill in: normalized growth reported for CC(C)(Oc1ccc(Cl)cc1)C(=O)O = 0.983

So, CCN(CC)CCNc1ccc(CO)c2sc3ccccc3c(=O)c12 ? Its normalized growth was 0.993

// normalized growth value for NS(=O)(=O)c1cc2c(cc1C(F)(F)F)NCNS2(=O)=O : 1

###

Below: a set of entries, each annotated with reported normalized growth.
assay: chemical genetic growth profiling, strain panel (AID 1159580);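 note: tested at 20 µM; growth read once vehicle control cultures reached saturation at 30 °C; 1 = growth at the plate median or of vehicle wells; lower values mean less growth of the strain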; settings: S. cerevisiae deletion strains, growth OD, locus YLR221C, strain rsa3, active compounds read low
Hit rate of the full screen: of about 5,500 compounds, about 2,000 (36%) were called active. Not shown: some 18% with an inconclusive outcome. Some of the results follow.
// no unit string in output, number only

Example cases with answers are listed next.
COc1ccc(-c2cc(=O)c3c(O)c(OC)c(OC)c(OC)c3o2)cc1: 0.992
CCC(CCC(C)[C@H]1CCC2C3CC=C4C[C@@H](O)CC[C@]4(C)C3CC[C@@]21C)C(C)C (stereo not given in full): 1.01
CCN(CC)CCNc1ccc(CO)c2sc3ccccc3c(=O)c12: 1.01
CCCCOc1cc(CC2CNC(=O)N2)ccc1OC (stereo not given): 0.971

// next item, normalized growth requested
Sure, the documented normalized growth for C=C1C2CC[C@@]3(C)[C@H](c4ccoc4)OC(=O)C[C@]13O[C@H]1CC(=O)C(C)(C)[C@H](C(O)C(=O)OC)[C@@]21C (stereo not given in full) is 0.976

###

assay: chemical genetic growth profiling, strain panel (AID 1159580);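 note: tested at 20 µM; growth read once vehicle control cultures reached saturation at 30 °C; 1 = growth at the plate median or of vehicle wells; lower values mean less growth of the strain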; settings: S. cerevisiae deletion strains, growth OD, locus YBR171W, strain sec66, active compounds read low
The whole screen tested about 5,500 compounds, of which about 2,000 (36%) were called active. Another 18% or so got no clear call; they are omitted. The list shows a part of the results.
measured-metric: normalized growth
Kindly provide the number alone.

Below are worked cases with known answers.
COCCOC(=O)C1=C(C)NC(C)=C(C(=O)OC(C)C)C1c1cccc([N+](=O)[O-])c1 (stereo not drawn): 1.02
CC(=O)Nc1cccc(O)c1: 1.02
C=CCc1ccccc1OCC(O)CNC(C)C (stereo not drawn): 0.99
C=C1C2CC[C@@]3(C)[C@H](c4ccoc4)OC(=O)C[C@]13O[C@H]1CC(=O)C(C)(C)[C@H](C(O)C(=O)OC)[C@@]21C (stereo partly drawn): 0.994
O=c1[nH]c2cc(Cl)c(Cl)cc2[nH]c1=O: 0.98

Lookup result for Cn1c(=O)c2[nH]c(C3CCCC3)nc2n(C)c1=O ; measured normalized growth: 1.01

molecule C[N+]1(CCCCC[N+]2(C)CCCC2)CCCC1 , normalized growth observed: 1
